TEST DESCRIPTION: Pharmacokinetic study in beagle dogs after oral administration of C. bungeana extract (UHPLC-MS/MS of plasma)
CONDITION SUMMARY: male, beagle, dog, plasma, po, 0.12 g/kg
VALUE TYPE: Tmax (min)

Illustrative cases are given below, each with its answer.
MOLECULE | Tmax, min
COc1cc2c(cc1OC)[C@@H]1Cc3ccc(OC)c(OC)c3CN1CC2 [Terahydropalmatine, tetrahydropalmatine] | 55.2
COc1ccc2cc3[n+](cc2c1O)CCc1cc2c(cc1-3)OCO2 | 57.6
CN1CCc2cc3c(cc2C(=O)Cc2ccc4c(c2C1)OCO4)OCO3 | 52.8
COc1cc2c(cc1O)-c1cc3ccc(OC)c(OC)c3c[n+]1CC2 | 55.2
CN1C(=O)c2c(ccc3c2OCO3)C2(C)C(O)Cc3cc4c(cc3C12)OCO4 (stereo not shown) | 55.2

A: CN1Cc2c(ccc3c2OCO3)[C@@]2(C)[C@@H](O)Cc3cc4c(cc3[C@@H]12)OCO4
B: CC(=O)O[C@H]1Cc2cc3c(cc2[C@H]2N(C)Cc4c(ccc5c4OCO5)[C@@]12C)OCO3
Which entry shows the lesser value of Tmax here, A or B ? # reply format: chosen label B

----------
TEST DESCRIPTION: Room temperature stability of stock solution
Assay type: physicochemical
CONDITION SUMMARY: high QC level, 25 °C for 24 h, n = 6
VALUE TYPE: Stability (% RE) Room Temperature for Stock-Solution

COMPOUND | RESULT VALUE
COc1ccc2cc3[n+](cc2c1O)CCc1cc2c(cc1-3)OCO2 | 3.65

I: COc1cc2c(cc1OC)[C@@H]1Cc3ccc(OC)c(OC)c3CN1CC2 [Terahydropalmatine, tetrahydropalmatine]
II: COc1ccc(CCNC(=O)/C=C/c2ccc(O)c(O)c2)cc1
Which entry shows the lesser value of Stability (% RE) Room Temperature for Stock-Solution here, I or II ? # reply format: chosen label I

----------
TEST DESCRIPTION: Room temperature stability of stock solution
Assay type: physicochemical
CONDITION SUMMARY: high QC level, 25 °C for 24 h, n = 6
VALUE TYPE: Stability (% RE) Room Temperature for Stock-Solution

COMPOUND | UNITS OF MEASURE | RESULT VALUE
COc1cc2c(cc1O)CC[n+]1cc3c(OC)c(OC)ccc3cc1-2 | % RE | 1.32

P: CC(=O)O[C@H]1Cc2cc3c(cc2[C@H]2N(C)Cc4c(ccc5c4OCO5)[C@@]12C)OCO3
Q: CN1C(=O)c2c(ccc3c2OCO3)C2(C)C(O)Cc3cc4c(cc3C12)OCO4 (stereo not shown)
R: COc1ccc2cc3[n+](cc2c1OC)CCc1cc2c(cc1-3)OCO2
Sort entries by Stability (% RE) Room Temperature for Stock-Solution from minimum to maximum value. The labels, placed in the requested order, form the answer. R, Q, P

----------
TEST DESCRIPTION: Stability of the analytes in beagle plasma QC samples under different storage conditions
Format: physicochemical, beagle dog
CONDITION SUMMARY: medium QC in beagle plasma, 4 h at ambient temperature, n = 6
VALUE TYPE: Stability (% RE) Short-Term

A: CC(=O)O[C@H]1Cc2cc3c(cc2[C@H]2N(C)Cc4c(ccc5c4OCO5)[C@@]12C)OCO3 [Acetylcorynoline, acetylcorynoline]
B: COc1ccc(CCNC(=O)/C=C/c2ccc(O)c(O)c2)cc1 [Z23]
Which entry shows the lesser value of Stability (% RE) Short-Term here, A or B ? # reply format: chosen label A
(A: 6.74 % RE, B: 9.94 % RE)

----------
TEST DESCRIPTION: Stability of the analytes in beagle plasma QC samples under different storage conditions
Format: physicochemical, beagle dog
CONDITION SUMMARY: low QC, 12 h after sample preparation at 4 °C, n = 6
VALUE TYPE: Stability (% RE) Post-Preparative

Illustrative cases are given below, each with its answer.
MOLECULE | UNITS OF MEASURE | Stability (% RE) Post-Preparative
COc1cc2c(cc1OC)-c1cc3ccc(OC)c(OC)c3c[n+]1CC2 [Palmatine, palmatine] | % RE | 6.92
CN1CCc2cc3c(cc2C(=O)Cc2ccc4c(c2C1)OCO4)OCO3 [Protopine, protopine] | % RE | 1.65

I: COc1ccc(CCNC(=O)/C=C/c2ccc(O)c(O)c2)cc1 [Z23]
II: CN1C(=O)c2c(ccc3c2OCO3)C2(C)C(O)Cc3cc4c(cc3C12)OCO4 (centres unmarked) [8-oxocorynoline]
Which is greater in Stability (% RE) Post-Preparative, the first item I or the second item II ? # reply format: chosen label I
(I: 12.10 % RE, II: 3.71 % RE)

----------
TEST DESCRIPTION: Room temperature stability of stock solution
Type: physicochemical
CONDITION SUMMARY: low QC level, 25 °C for 24 h, n = 6
VALUE TYPE: Stability (% RE) Room Temperature for Stock-Solution

Illustrative cases are given below, each with its answer.
COMPOUND | UNITS OF MEASURE | RESULT VALUE
COc1ccc(CCNC(=O)/C=C/c2ccc(O)c(O)c2)cc1 | % RE | 3.65
CN1C(=O)c2c(ccc3c2OCO3)C2(C)C(O)Cc3cc4c(cc3C12)OCO4 (stereo not drawn) | % RE | −4.08
COc1cc2c(cc1O)-c1cc3ccc(OC)c(OC)c3c[n+]1CC2 | % RE | 4.02
COc1cc2c(cc1O)CC[n+]1cc3c(OC)c(OC)ccc3cc1-2 | % RE | 1.16
COc1cc2c(cc1OC)[C@@H]1Cc3ccc(OC)c(OC)c3CN1CC2 [Terahydropalmatine, tetrahydropalmatine] | % RE | 2.97

A: COc1ccc2cc3[n+](cc2c1OC)CCc1cc2c(cc1-3)OCO2
B: COc1ccc2cc3[n+](cc2c1O)CCc1cc2c(cc1-3)OCO2
Which is greater in Stability (% RE) Room Temperature for Stock-Solution, the first item A or the second item B ? # reply format: chosen label A
(A: 2.22 % RE, B: −2.05 % RE)

----------
TEST DESCRIPTION: Stability of the analytes in beagle plasma QC samples under different storage conditions
Assay type: physicochemical, beagle dog
CONDITION SUMMARY: high QC in beagle plasma, 4 h at ambient temperature, n = 6
VALUE TYPE: Stability (% RE) Short-Term

I: CN1CCc2cc3c(cc2C(=O)Cc2ccc4c(c2C1)OCO4)OCO3
II: CN1Cc2c(ccc3c2OCO3)[C@@]2(C)[C@@H](O)Cc3cc4c(cc3[C@@H]12)OCO4
Which entry shows the lesser value of Stability (% RE) Short-Term here, I or II ? # reply format: chosen label II

1: CN1C(=O)c2c(ccc3c2OCO3)C2(C)C(O)Cc3cc4c(cc3C12)OCO4 (stereo not shown)
2: COc1cc2c(cc1OC)-c1cc3ccc(OC)c(OC)c3c[n+]1CC2
Which entry shows the lesser value of Stability (% RE) Short-Term here, 1 or 2 ? # reply format: chosen label 1
(1: −2.89 % RE, 2: 6.73 % RE)

----------
TEST DESCRIPTION: Pharmacokinetic study in beagle dogs after oral administration of C. bungeana extract (UHPLC-MS/MS of plasma)
CONDITION SUMMARY: male, beagle, dog, plasma, po, 0.12 g/kg
VALUE TYPE: AUC(0-t) (ng·h/mL)

Illustrative cases are given below, each with its answer.
COMPOUND | RESULT VALUE
CC(=O)O[C@H]1Cc2cc3c(cc2[C@H]2N(C)Cc4c(ccc5c4OCO5)[C@@]12C)OCO3 | 230
COc1cc2c(cc1OC)-c1cc3ccc(OC)c(OC)c3c[n+]1CC2 | 8040
COc1ccc(CCNC(=O)/C=C/c2ccc(O)c(O)c2)cc1 | 682
CN1CCc2cc3c(cc2C(=O)Cc2ccc4c(c2C1)OCO4)OCO3 | 1030
COc1ccc2cc3[n+](cc2c1O)CCc1cc2c(cc1-3)OCO2 | 1160
COc1cc2c(cc1O)-c1cc3ccc(OC)c(OC)c3c[n+]1CC2 | 6830
CN1Cc2c(ccc3c2OCO3)[C@@]2(C)[C@@H](O)Cc3cc4c(cc3[C@@H]12)OCO4 | 734
COc1cc2c(cc1O)CC[n+]1cc3c(OC)c(OC)ccc3cc1-2 | 151

a: COc1cc2c(cc1OC)[C@@H]1Cc3ccc(OC)c(OC)c3CN1CC2 [Terahydropalmatine, tetrahydropalmatine]
b: COc1ccc2cc3[n+](cc2c1OC)CCc1cc2c(cc1-3)OCO2
Which is greater in AUC(0-t), the first item a or the second item b ? # reply format: chosen label b

----------
TEST DESCRIPTION: Stability of the analytes in beagle plasma QC samples under different storage conditions
Assay type: physicochemical, beagle dog
CONDITION SUMMARY: low QC in beagle plasma, three freeze (−80 °C)-thaw cycles, n = 6
VALUE TYPE: Stability (% RE) Freeze-Thaw

a: COc1ccc(CCNC(=O)/C=C/c2ccc(O)c(O)c2)cc1
b: CN1CCc2cc3c(cc2C(=O)Cc2ccc4c(c2C1)OCO4)OCO3
c: COc1ccc2cc3[n+](cc2c1O)CCc1cc2c(cc1-3)OCO2
d: CN1C(=O)c2c(ccc3c2OCO3)C2(C)C(O)Cc3cc4c(cc3C12)OCO4 (stereo not shown)
Order by Stability (% RE) Freeze-Thaw, ascending. The labels, placed in the requested order, form the answer. d, b, a, c
(d: 1.18 % RE, b: 3.72 % RE, a: 5.35 % RE, c: 12.88 % RE)
